Tested on: OVCAR-8 ovarian
Assay: NCI tumour cell line growth inhibition, 48 h
For each of the compounds below, state its TGI.

Query string: Given the compound CCOP(=O)(OCC)C(NC(c1ccccc1)c1ccccc1)c1cccc2ccccc12 (stereo not drawn) , write its reported TGI.
Result string: > 100 µM

Query string: Indicate its recorded TGI; the compound in question is `CC(C)(C)c1ccc(S(=O)(=O)N[C@H]2CC[C@H]3[C@@H]4CCc5cc(OS(=O)(=O)O)ccc5[C@H]4CC[C@]23C)cc1`
Result string: 8.46 µM

Query string: Dear colleague, please send me the reported TGI for `Cc1cccc(NC(=S)N=Nc2c(O)[nH]c3ccccc23)c1` when you can.
Result string: > 100 µM

Query string: // fetch TGI given entry `CN(C)C(=S)N=Nc1c(O)[nH]c2ccccc12`
Result string: 26 µM

Query string: Determine its reported TGI: `COC(=O)c1c(C)cccc1/C=C1\Cc2cc(C)cc(C)c2C1=O`
Result string: > 100 µM

Query string: For the compound CC1OC2CC(=O)OC2C2=C1C(=O)c1c(O)c3c(c(O)c1C2=O)C1CC(O)C3(O)C(C)O1 (stereo not drawn) , report TGI.
Result string: 3.5 µM

Query string: Supply recorded TGI for `Brc1ccccc1-c1ncc(-c2ccccc2)o1` here.
Result string: > 100 µM

Query string: Tell me measured TGI for `C=C1C(=O)O[C@H]2[C@H]1CC/C(COC(=O)N1CCC[C@H]1C(=O)Nc1ccc(OC)c(C(N)=O)c1O)=C\CC[C@@]1(C)O[C@@H]21` please.
Result string: 26 µM

Query string: Entry `COC(=O)/C=c1/c2ccccc2n2nc3ccccc3c12` needs its TGI filled in; supply it.
Result string: > 100 µM

Query string: Note TGI for the compound shown: `CCOC(=O)NN1C(=O)C(=P(c2ccccc2)(c2ccccc2)c2ccccc2)C(C(=O)OCC)=C1C`
Result string: > 100 µM

Query string: Give reported TGI value for COc1ccc(NC(=O)/C(CC2=Nc3ccc([N+](=O)[O-])cc3NC2O)=N\NC(=O)C[N+](C)(C)C)c(OC)c1 (stereo not drawn)
Result string: 69.8 µM

Query string: Please supply the value of reported TGI for the item COc1ccc2c3c1OC1c4[nH]c5ccccc5c4CC4(O)C(C2)N(C)CCC314 (stereo not drawn)
Result string: > 100 µM

Query string: Look up and report measured TGI for this entry: `Cc1nc2sc(C(=O)Nc3ccccc3)c(N)c2cc1C(=O)/C=C/c1ccccc1`
Result string: 11.8 µM

Query string: Input `C[C@H]1[C@H](C)CC[C@]2(C(=O)O)CC[C@]3(C)C(=CC[C@@H]4[C@@]5(C)C/C(=C/c6cccnc6)[C@H](O)C(C)(C)[C@@H]5CC[C@]43C)[C@H]12` , output reported TGI.
Result string: > 100 µM

Query string: Provide only the value of recorded TGI for `O=C1C(Cl)=C(Nc2cccc(O)c2)C(=O)N1c1cc(Cl)c(Cl)cc1Cl`
Result string: 75.5 µM

Query string: Note TGI for the compound shown: `CC1(C)CC(=O)c2c(nc3ccc4ccccc4c3c2-c2ccc(NC(=O)CCC(=O)Nc3ccc(-c4c5c(nc6ccc7ccccc7c46)CC(C)(C)CC5=O)cc3)cc2)C1`
Result string: > 100 µM

Query string: Input COC(=O)CCC12CCC(O1)c1ccccc12 (stereo not drawn) , output reported TGI.
Result string: > 100 µM

Query string: Given `CSc1ccc(/C=C2\N=C(c3ccccc3)N(c3nc4ccc(Sc5ccccc5)cc4[nH]3)C2=O)cc1` , respond with its TGI.
Result string: > 87.4 µM
